meta.source: ChEMBL document CHEMBL1144859

biological target: Gonadotropin-releasing hormone receptor (Homo sapiens, UniProt P30968)
Sequence (P30968 whole entry): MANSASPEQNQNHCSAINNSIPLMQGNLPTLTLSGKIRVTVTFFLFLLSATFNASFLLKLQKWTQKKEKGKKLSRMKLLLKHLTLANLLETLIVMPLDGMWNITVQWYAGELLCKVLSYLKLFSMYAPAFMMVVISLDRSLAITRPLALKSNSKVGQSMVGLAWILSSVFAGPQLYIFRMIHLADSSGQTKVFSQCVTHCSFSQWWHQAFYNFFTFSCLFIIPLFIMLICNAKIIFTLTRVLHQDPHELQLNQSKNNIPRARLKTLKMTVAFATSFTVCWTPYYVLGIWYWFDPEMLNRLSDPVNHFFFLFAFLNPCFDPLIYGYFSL
result type: Ki (nM)
Answer in nM, number only, no unit symbol.

Here's what some known entries look like.
smiles repr	measured result
CCNC(=O)Nc1ccc(-c2nc3n(Cc4c(F)cccc4F)cc(C(=O)OCC)c(=O)n3c2CN(CC(=O)N[C@H](C(=O)NCC#Cc2cccc(C#CCNC(=O)[C@@H](NC(=O)CN(Cc3ccccc3)Cc3c(-c4ccc(NC(=O)NCC)cc4)nc4n(Cc5c(F)cccc5F)cc(C(=O)OCC)c(=O)n34)C(C)C)c2)C(C)C)Cc2ccccc2)cc1	2200
CCNC(=O)Nc1ccc(-c2nc3n(Cc4c(F)cccc4F)cc(C(=O)OCC)c(=O)n3c2CN(CC(=O)N2CCC[C@H]2C(=O)NCC#Cc2cccc(C#CCNC(=O)[C@@H]3CCCN3C(=O)CN(Cc3ccccc3)Cc3c(-c4ccc(NC(=O)NCC)cc4)nc4n(Cc5c(F)cccc5F)cc(C(=O)OCC)c(=O)n34)c2)Cc2ccccc2)cc1	930
CCNC(=O)Nc1ccc(-c2nc3n(Cc4c(F)cccc4F)cc(C(=O)OCC)c(=O)n3c2CN(CC(=O)NCC(=O)NCC#Cc2ccc(C#CCNC(=O)CNC(=O)CN(Cc3ccccc3)Cc3c(-c4ccc(NC(=O)NCC)cc4)nc4n(Cc5c(F)cccc5F)cc(C(=O)OCC)c(=O)n34)cc2)Cc2ccccc2)cc1	530
CCNC(=O)Nc1ccc(-c2nc3n(Cc4c(F)cccc4F)cc(C(=O)OCC)c(=O)n3c2CN(CC(=O)NCCCCCC(=O)NCC#Cc2ccccc2)Cc2ccccc2)cc1	380

Record CCNC(=O)Nc1ccc(-c2nc3n(Cc4c(F)cccc4F)cc(C(=O)OCC)c(=O)n3c2CN(CC(=O)NCC(=O)NCC#Cc2ccccc2)Cc2ccccc2)cc1 . Reported Ki: 170

Lab book: Ki of CCNC(=O)Nc1ccc(-c2nc3n(Cc4c(F)cccc4F)cc(C(=O)OCC)c(=O)n3c2CN(CC(=O)N2CCC(C(=O)NCC#Cc3cccc(C#CCNC(=O)C4CCN(C(=O)CN(Cc5ccccc5)Cc5c(-c6ccc(NC(=O)NCC)cc6)nc6n(Cc7c(F)cccc7F)cc(C(=O)OCC)c(=O)n56)CC4)c3)CC2)Cc2ccccc2)cc1 noted as 400

Ki in this record for CCNC(=O)Nc1ccc(-c2nc3n(Cc4c(F)cccc4F)cc(C(=O)OCC)c(=O)n3c2CN(CC(=O)N[C@H](C(=O)NCC#Cc2ccccc2)C(C)C)Cc2ccccc2)cc1 : 770

For this molecule ( CCNC(=O)Nc1ccc(-c2nc3n(Cc4c(F)cccc4F)cc(C(=O)OCC)c(=O)n3c2CN(CC(=O)N2CCC[C@H]2C(=O)NCC#Cc2ccccc2)Cc2ccccc2)cc1 ), measured Ki is 260

Lab book: Ki of CCNC(=O)Nc1ccc(-c2nc3n(Cc4c(F)cccc4F)cc(C(=O)OCC)c(=O)n3c2CN(CC(=O)N[C@@H](C)C(=O)NCC#Cc2ccc(C#CCNC(=O)[C@H](C)NC(=O)CN(Cc3ccccc3)Cc3c(-c4ccc(NC(=O)NCC)cc4)nc4n(Cc5c(F)cccc5F)cc(C(=O)OCC)c(=O)n34)cc2)Cc2ccccc2)cc1 noted as 480
